- experimentalTarget: T1, GST-hUHRF1-TTD (126-280) R207E (human, UniProt Q96T88 126-280, R207E)
- T1 construct: Tandem Tudor domain (TTD) of human UHRF1, UniProt Q96T88, residues 126-280; also called TTD R207E; source: E. coli, purified (Glutathione Agarose 4B); not shown: GST, N-terminal, kept
- T1 sequence (looked up): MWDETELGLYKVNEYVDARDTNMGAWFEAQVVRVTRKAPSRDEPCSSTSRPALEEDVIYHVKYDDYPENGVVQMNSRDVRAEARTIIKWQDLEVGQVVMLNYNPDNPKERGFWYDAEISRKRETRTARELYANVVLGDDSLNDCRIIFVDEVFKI
- methodSummary: fluorescence polarisation; fluorescence anisotropy titration; 100 nM FITC-labeled peptide in the cuvette, protein added stepwise; 23°C; 100 mM KCl, 20 mM HEPES pH 7.5, 10% v/v glycerol
- assayConditions: both partners purified
pKd: −log10 of the molar value. No end group written: not given here. Me3 = trimethyl (trimethyl-lysine)
measuredMetric: pKd

binder	number
ARTK(Me)QTARK(Me3)STGGKAPRKQ (peptide, UniProt P68431 2-20, looked up, also: FITC-labeled (position not given here), histone H3 N-terminal tail, residues 1-19; also called H3K4me1-K9me3; H3 K4me1-K9me3) [FITC-labeled H3(1-19) peptide with K4me1 and K9me3]	6.57
